Molecular target: LILRB2 antigen of the ELISA of Table 5 (format not specified) (UniProt Q8N423 22-460, limits assumed)
Sequence (Q8N423 22-460 limits assumed): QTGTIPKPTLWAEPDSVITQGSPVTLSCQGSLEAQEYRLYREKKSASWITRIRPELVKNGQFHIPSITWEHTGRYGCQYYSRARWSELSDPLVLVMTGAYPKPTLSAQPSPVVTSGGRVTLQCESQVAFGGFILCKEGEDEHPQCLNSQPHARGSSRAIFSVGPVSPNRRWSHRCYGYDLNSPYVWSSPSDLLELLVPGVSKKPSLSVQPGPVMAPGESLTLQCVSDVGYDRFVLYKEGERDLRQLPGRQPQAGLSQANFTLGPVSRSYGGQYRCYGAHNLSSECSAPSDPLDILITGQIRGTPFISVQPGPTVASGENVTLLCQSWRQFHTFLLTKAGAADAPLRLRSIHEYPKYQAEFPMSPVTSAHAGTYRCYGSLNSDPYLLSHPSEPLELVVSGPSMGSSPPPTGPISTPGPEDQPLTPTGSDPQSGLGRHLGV
Assay: ELISA, antibody titration
In this section we review reported Kd values for a set of binders.
Use nM as the unit, but write only the number.

Q) Entry Antibody 13D12 (antibody, V domains shown, Mouse hybridoma mAb purified from ascites) VH: EIQLQQSGPELVKPGASVKVSCKASGYAFTSHNIYWVKQSHGKSLEWIGYIDPYNGGSTYNQKFKDKATLTVDKSSSTAYMHLKSLTSEDSAVYYCARGDYRDFWGQGTTLTVSS VL: DIQMTQTTSSLSASLGDRVTIRCSASQAINNYLNWYQQKPDGTVKLLIYYTSSLHSGVPSRFSGSGSGADYSLTISNLEPEDIATYYCQQYSHLPWTFGGGTTLEIK : reported Kd = ?
A) 2.48

Q) Try the binder Antibody 3C12 (antibody, V domains shown, Mouse hybridoma mAb purified from ascites) VH: QVQLKESGPGLVAPSQSLSITCTVSGFSLTSYGVHWVRQSPGKGLEWLGVIWAGGTTNYNSALMSRLSISKDNSKSQVFLKMNSLQADDTAMYYCARGGYGHSMDYWGQGTSVTVSS VL: DIVMTQSHKFMSTSVGDRVSITCKASQDVSNAVAWYQQKPGQSPKLLIYSASYRYTGVPDRFTGSGSGTDFIFTISSVQAEDLAVYYCQQHYSTPFTFGSGTKLEIK
A) 5.01
